Listing of recorded Potency by entry.
# target: Cellular tumor antigen p53 (Homo sapiens) (UniProt P04637)
# Sequence (P04637 whole entry, looked up): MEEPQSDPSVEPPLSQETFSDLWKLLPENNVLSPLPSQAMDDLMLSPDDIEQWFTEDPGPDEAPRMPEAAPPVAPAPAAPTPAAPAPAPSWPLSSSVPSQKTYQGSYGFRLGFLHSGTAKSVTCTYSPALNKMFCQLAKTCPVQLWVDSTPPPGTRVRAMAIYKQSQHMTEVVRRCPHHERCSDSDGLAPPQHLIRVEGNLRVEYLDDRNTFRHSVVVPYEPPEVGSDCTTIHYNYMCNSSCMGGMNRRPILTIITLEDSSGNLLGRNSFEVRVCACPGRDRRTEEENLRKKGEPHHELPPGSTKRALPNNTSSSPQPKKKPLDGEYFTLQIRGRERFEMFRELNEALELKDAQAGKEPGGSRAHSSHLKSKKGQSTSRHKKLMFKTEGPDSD
# experiment: Primary qHTS for small molecule compounds that upregulate eGFP-tagged delta133p53alpha (in N-terminal) cells. (AID 2060322); note: potency is the fitted concentration of half-maximal effect; nearly all actives have a fitted effect of over 75% in size
# measurementContext: NCI-H358 eGFP-delta133p53alpha fluorescence, 24 h
Records with an inconclusive call do not appear. Activity calls are given as the source filed them. Calls come from the whole dose curve; as a rule, active = well fitted activation curve with a large enough effect; inconclusive = small, poorly fitted or top-dose-only effect; inactive = no such curve, though single readings can be large or run the other way.

Would you please look over these solved cases?
compound: C=C(C)C(=O)O[C@H]1[C@@H]2[C@H](C)C(=O)O[C@@H]2C[C@@H](C)[C@@H]2C=CC(=O)[C@]21C
valueObserved: 13.2 µM (active)
//
compound: CC(=O)OC[C@]12C[C@H](O)C(C)=C[C@H]1O[C@@H]1[C@H](O)[C@@H](OC(C)=O)[C@@]2(C)[C@]12CO2
valueObserved: 0.083 µM (active)
//
compound: CN(C)[C@@H]1C(=O)C(C(N)=O)=C(O)[C@@]2(O)C(=O)C3=C(O)c4c(O)ccc(Cl)c4[C@@](C)(O)C3C[C@@H]12 (stereo partly drawn)
valueObserved: 23.9 µM (active)

In plain terms, C=C1C(=O)CC2OC2(C)CC2OC(=O)C(=C)C2C(O)C1OC(=O)/C(C)=C\C (stereo not drawn) has a documented Potency of 18.6 µM (active)

In plain terms, CC12CCC3C(CCC4(O)CC(O)CCC34C=O)C1(O)CCC2C1=CC(=O)OC1 (stereo not drawn) has a documented Potency of 10.7 µM (active)

In plain terms, CC(=O)[O][Hg][c]1ccccc1 has a documented Potency of 8.71 µM (active)

In plain terms, CC[C@@]1(O)C(=O)OCc2c1cc1n(c2=O)Cc2cc3ccccc3nc2-1 has a documented Potency of 1.09 µM (active)

In plain terms, C[C@]12CC[C@H]3[C@@H](CC[C@@]45O[C@H]4C(O)=C(C#N)C[C@]35C)[C@H]1CC[C@H]2O has a documented Potency of 21.7 µM (active)

In plain terms, CC1=CC(=O)[C@@H](O)[C@@]2(C)C1C[C@H]1OC(=O)[C@H](O)[C@@]3(O)[C@@H](C)[C@@H](O)[C@H](O)C2[C@@]13C (stereo partly drawn) has a documented Potency of 14.8 µM (active)

In plain terms, C[C@]12CC[C@H](O)C[C@H]1CC[C@@H]1[C@@H]2[C@H](O)C(=O)[C@]2(C)[C@@H](c3ccc(=O)oc3)CC[C@]12O has a documented Potency of 0.19 µM (active)

In plain terms, C[CH2][Hg][S]c1ccccc1C(=O)O has a documented Potency of 3.89 µM (active)
